# Test system: SK-MEL-2
# Assay details: NCI tumour cell line growth inhibition, 48 h
Activity calls are given as the source filed them. Cut-off read from the data, not from the text of the source: active = GI50 up to about 1.1 µM and inactive = higher.
A collection of compounds and their measured GI50
Endpoint name: GI50

Cc1cc(/N=C2\C=C(Nc3cc(C)on3)C(=O)c3ccccc32)no1; 17.1 µM (inactive)
CCc1nc(N)nc(N)c1-c1ccc(N2CCNCC2)c([N+](=O)[O-])c1; 36.9 µM (inactive)
CC(=O)OC[C@H]1On2nnnc2[C@H](OC(C)=O)[C@@H](OC(C)=O)[C@@H]1OC(C)=O; > 100 µM (inactive)
O=C(/C=C/c1ccc(O)c(O)c1)OCCc1ccc2ccccc2c1; 1.29 µM (inactive)
ClCCNCCNCCCl.ClCCNCCNCCCl.[O-][Cl+3]([O-])([O-])O; 21.4 µM (inactive)
OCCSCc1ccccc1; > 100 µM (inactive)
CC(=O)NC1C(O)CC(OCCCSCCN)(C(=O)O)OC1C(O)C(O)CO (stereo unspecified); > 100 µM (inactive)
O=C1CC(O)c2c1csc2Br (stereo unspecified); 34.2 µM (inactive)
Cc1n[nH]c(=O)c2cc(-c3ccccc3)[nH]c12; 31 µM (inactive)
O=C1C2CN(Cc3ccccc3)CC1CN(CC1CC1)C2; > 100 µM (inactive)
CO[C@]12C[C@H](CNC(=O)c3cc(Br)c(Br)[nH]3)O[C@H]1NC(=O)N2; > 100 µM (inactive)

// provenance: ChEMBL document CHEMBL1201862
